Test: Inhibition of human prostanoid DP2 receptor in human whole bood assessed as eosinophil shape change preincubated for 15 mins before addition of PGD2 measured after 5 mins by FACS analysis
READOUT_TYPE: IC50 (nM)

[[record]]
smiles_text = "CCN(Cc1cc(C(F)(F)F)ccc1-c1cc(CC(=O)O)ccc1OC)C(=O)OC"
readout_type = "IC50"
recorded_measurement = 8

[[record]]
smiles_text = "CCN(Cc1cc(C(F)(F)F)ccc1-c1cc(CC(=O)O)ccc1OC)C(=O)OCc1ccccc1Cl"
readout_type = "IC50"
recorded_measurement = 7

[[record]]
smiles_text = "COC(=O)N(CCc1ccccc1)Cc1cc(C(F)(F)F)ccc1-c1cc(CC(=O)O)ccc1OC"
readout_type = "IC50"
recorded_measurement = 34

[[record]]
smiles_text = "CCN(Cc1cc(C(F)(F)F)ccc1-c1cc(CC(=O)O)ccc1OC)C(=O)OCc1cccc(Cl)c1"
readout_type = "IC50"
recorded_measurement = 7

[[record]]
smiles_text = "CCN(Cc1cc(C(F)(F)F)ccc1-c1cc(CC(=O)O)ccc1OC)C(=O)OCc1ccc(Cl)cc1"
readout_type = "IC50"
recorded_measurement = 6

[[record]]
smiles_text = "COC(=O)N(Cc1ccccc1)Cc1cc(C(F)(F)F)ccc1-c1cc(CC(=O)O)ccc1OC"
readout_type = "IC50"
recorded_measurement = 22

[[record]]
smiles_text = "COc1ccc(CC(=O)O)cc1-c1ccc(C(F)(F)F)cc1CNC(=O)OCc1ccccc1"
readout_type = "IC50"
recorded_measurement = 709

[[record]]
smiles_text = "CCN(Cc1cc(C(F)(F)F)ccc1-c1cc(CC(=O)O)ccc1OC)C(=O)OCc1cc(F)cc(F)c1"
readout_type = "IC50"
recorded_measurement = 5

[[record]]
smiles_text = "COc1ccc(CC(=O)O)cc1-c1ccc(C(F)(F)F)cc1CN(C)C(=O)OCc1ccccc1"
readout_type = "IC50"
recorded_measurement = 9

